Tested on: CYP2B6 mRNA
assay text: CYP450 induction in cultured human hepatocytes, mRNA by qRT-PCR
Type: cell-based
experimental conditions: hepatocytes HC10‐8; ± standard error; read-out: Basic kinetic model: EC50
Description: Cells were then harvested to isolate RNA, which was analyzed by quantitative reverse transcription‐polymerase chain reaction (qRT‐PCR) for induction of CYP1A2, CYP2B6, and CYP3A4 mRNA levels. […] Quantitative PCR was performed in triplicate with a 7900HT Fast Real Time PCR System, an Applied Biosystems Universal Master Mix, and TaqMan® Gene Expression Assays. The quantity of target cDNA relative to control cDNA (GAPDH) was determined by the ΔΔCT method (Applied Biosystems User Bulletin #2). […]
attribute measured: EC50 (µM)
Numbers only, in µM.

Ask: Given CC(N)Cc1cccc(C(F)(F)F)c1.Cl (stereo not shown) , respond with its EC50.
Reply: 26.4

----------
System: CYP3A4 mRNA
assay text: in vitro
experimental conditions: human, Basic kinetic model: EC50, hepatocytes HC10‐8; ± standard error
attribute measured: pEC50
One number for each entry, as −log10 of the molar value.

Ask: Given CCNC(C)Cc1cccc(C(F)(F)F)c1 (racemic) [FFA, reference compound] , respond with its pEC50.
Reply: 4.69

----------
tgt: P‐gp (Homo sapiens)
Construct: host or cells: Caco-2
Sequence (P08183 whole entry): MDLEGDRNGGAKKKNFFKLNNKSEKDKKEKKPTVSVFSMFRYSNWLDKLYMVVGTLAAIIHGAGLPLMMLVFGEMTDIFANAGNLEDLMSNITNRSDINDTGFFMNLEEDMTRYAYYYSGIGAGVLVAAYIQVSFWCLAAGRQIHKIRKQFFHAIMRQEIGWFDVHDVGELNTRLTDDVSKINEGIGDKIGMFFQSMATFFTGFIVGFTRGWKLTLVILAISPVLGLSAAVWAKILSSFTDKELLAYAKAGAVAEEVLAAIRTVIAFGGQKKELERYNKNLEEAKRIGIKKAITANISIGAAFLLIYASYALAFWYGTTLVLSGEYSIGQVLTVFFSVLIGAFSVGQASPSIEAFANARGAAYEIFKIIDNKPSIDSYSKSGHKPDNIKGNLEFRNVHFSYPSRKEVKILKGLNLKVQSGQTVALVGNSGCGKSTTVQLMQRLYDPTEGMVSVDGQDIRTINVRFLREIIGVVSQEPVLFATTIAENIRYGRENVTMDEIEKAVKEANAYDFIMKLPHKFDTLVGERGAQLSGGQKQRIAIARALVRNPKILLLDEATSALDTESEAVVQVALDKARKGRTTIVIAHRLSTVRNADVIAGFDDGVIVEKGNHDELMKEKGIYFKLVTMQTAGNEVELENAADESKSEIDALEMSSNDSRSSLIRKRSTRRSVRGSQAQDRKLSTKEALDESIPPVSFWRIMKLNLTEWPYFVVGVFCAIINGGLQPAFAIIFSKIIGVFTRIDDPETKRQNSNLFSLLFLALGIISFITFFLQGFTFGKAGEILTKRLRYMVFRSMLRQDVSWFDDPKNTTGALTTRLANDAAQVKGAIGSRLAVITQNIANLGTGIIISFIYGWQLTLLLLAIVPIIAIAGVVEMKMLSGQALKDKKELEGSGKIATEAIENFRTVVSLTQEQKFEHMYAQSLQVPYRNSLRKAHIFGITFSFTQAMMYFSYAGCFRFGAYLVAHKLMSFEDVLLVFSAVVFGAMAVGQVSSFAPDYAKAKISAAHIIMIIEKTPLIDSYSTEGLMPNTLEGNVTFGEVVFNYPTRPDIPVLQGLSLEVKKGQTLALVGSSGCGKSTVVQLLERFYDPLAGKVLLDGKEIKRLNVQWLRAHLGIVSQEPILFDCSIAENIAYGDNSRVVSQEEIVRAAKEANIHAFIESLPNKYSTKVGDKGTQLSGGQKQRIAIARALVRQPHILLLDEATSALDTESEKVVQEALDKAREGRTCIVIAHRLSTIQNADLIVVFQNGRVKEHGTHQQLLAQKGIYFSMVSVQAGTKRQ
assay text: Transporter inhibition, bidirectional permeability of digoxin in Caco-2 cells
Type: in vitro ADME
experimental conditions: Caco-2; probe digoxin 10 µM; read-out: IC50
pIC50: −log10 of the molar value.
attribute measured: pIC50

Ask: Given CC(N)Cc1cccc(C(F)(F)F)c1.Cl (stereo not shown) , respond with its pIC50.
Reply: < 4.30

----------
tgt: CYP2C9 (Homo sapiens, UniProt P11712)
Sequence (P11712 whole entry): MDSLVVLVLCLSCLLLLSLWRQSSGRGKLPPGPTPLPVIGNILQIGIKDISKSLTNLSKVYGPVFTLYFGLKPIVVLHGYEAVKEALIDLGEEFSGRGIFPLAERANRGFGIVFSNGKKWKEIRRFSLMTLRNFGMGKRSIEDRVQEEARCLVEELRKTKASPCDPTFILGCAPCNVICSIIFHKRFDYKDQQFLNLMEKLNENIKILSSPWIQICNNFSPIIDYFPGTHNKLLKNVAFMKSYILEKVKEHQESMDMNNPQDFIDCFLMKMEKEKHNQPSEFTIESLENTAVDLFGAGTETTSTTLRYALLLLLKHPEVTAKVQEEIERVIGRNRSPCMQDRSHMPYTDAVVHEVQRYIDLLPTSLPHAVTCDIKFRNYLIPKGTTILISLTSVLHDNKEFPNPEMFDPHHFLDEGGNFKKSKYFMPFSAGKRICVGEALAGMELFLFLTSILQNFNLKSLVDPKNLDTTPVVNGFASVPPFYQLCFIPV
assay text: Direct CYP450 inhibition in human liver microsomes (diclofenac 4'-hydroxylation)
experimental conditions: direct inhibition; human liver microsomes; substrate diclofenac
attribute measured: IC50

Ask: Please tell me the measured IC50 for CC(N)Cc1cccc(C(F)(F)F)c1.Cl (stereo not shown) [nFFA] ; system: CYP2C9 (Homo sapiens, UniProt P11712).
Reply: > 100 µM

----------
tgt: CYP2D6 (Homo sapiens, UniProt P10635)
Sequence (P10635 whole entry): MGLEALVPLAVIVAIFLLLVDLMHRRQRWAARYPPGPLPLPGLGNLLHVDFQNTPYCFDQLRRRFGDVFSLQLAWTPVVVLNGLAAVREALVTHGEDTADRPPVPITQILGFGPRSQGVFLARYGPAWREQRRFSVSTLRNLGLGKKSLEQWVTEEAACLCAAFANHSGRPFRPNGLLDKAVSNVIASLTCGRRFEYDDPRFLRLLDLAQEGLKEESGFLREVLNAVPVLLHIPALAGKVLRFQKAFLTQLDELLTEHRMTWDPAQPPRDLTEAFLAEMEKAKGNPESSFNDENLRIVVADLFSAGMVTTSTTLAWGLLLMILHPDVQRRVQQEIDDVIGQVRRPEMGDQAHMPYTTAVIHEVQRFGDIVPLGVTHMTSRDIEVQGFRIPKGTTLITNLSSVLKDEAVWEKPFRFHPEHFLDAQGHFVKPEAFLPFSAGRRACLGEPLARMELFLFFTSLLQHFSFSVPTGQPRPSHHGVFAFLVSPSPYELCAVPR
assay text: Time- and metabolism-dependent inhibition, 30-min preincubation with or without NADPH (dextromethorphan O-demethylation)
experimental conditions: both, human, pooled human liver microsomes, pH 7.4, probe dextromethorphan (O-demethylation), % inhibition (+ NADPH), 30-min preincubation in the presence of NADPH
attribute measured: inhibition at 30 min (%)
Give bare numbers, in %.

Ask: Given CCNC(C)Cc1cccc(C(F)(F)F)c1 (racemic) [FFA, reference compound] , respond with its inhibition at 30 min.
Reply: 82

----------
Test system: CYP3A4/5
assay text: Direct CYP450 inhibition in human liver microsomes (midazolam 1'-hydroxylation; testosterone 6β-hydroxylation)
experimental conditions: both, human, pooled human liver microsomes, pH 7.4, probe testosterone (6β-hydroxylation)
attribute measured: IC50

Ask: Given CCNC(C)Cc1cccc(C(F)(F)F)c1 (racemic) [FFA, reference compound] , respond with its IC50.
Reply: > 600 µM

----------
tgt: OAT3 (Homo sapiens)
Construct: host or cells: HEK293
Sequence (Q8TCC7 whole entry): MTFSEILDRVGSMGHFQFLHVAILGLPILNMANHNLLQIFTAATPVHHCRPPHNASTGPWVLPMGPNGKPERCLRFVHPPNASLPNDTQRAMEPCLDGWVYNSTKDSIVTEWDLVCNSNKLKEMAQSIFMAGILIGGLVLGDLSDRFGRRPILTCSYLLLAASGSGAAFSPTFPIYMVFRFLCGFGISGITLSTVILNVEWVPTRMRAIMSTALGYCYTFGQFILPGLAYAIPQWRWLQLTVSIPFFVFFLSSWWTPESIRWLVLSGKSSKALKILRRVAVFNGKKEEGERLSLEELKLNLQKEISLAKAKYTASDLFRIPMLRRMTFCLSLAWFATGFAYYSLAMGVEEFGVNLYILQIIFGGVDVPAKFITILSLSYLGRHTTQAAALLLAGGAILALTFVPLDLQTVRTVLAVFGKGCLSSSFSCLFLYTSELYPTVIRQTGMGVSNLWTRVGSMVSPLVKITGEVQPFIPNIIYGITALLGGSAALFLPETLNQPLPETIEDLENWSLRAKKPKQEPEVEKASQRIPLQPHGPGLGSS
assay text: Transporter inhibition, uptake of [3H]-estrone-3-sulfate in HEK293 cells
Format: in vitro ADME
experimental conditions: HEK293; probe [3H]-estrone-3-sulfate 50 nM; read-out: IC50
attribute measured: IC50

Ask: Given CC(N)Cc1cccc(C(F)(F)F)c1.Cl (stereo not shown) , respond with its IC50.
Reply: > 50 µM

----------
Test system: CYP3A4 mRNA
assay text: in vitro
experimental conditions: read-out: Basic kinetic model: EC50; hepatocytes HC10‐10; ± standard error
attribute measured: EC50

Ask: Please tell me the measured EC50 for CC(N)Cc1cccc(C(F)(F)F)c1.Cl (stereo not shown) ; system: CYP3A4 mRNA.
Reply: 17.1 µM

----------
tgt: CYP2D6 (Homo sapiens, UniProt P10635)
assay text: Time- and metabolism-dependent inhibition, 30-min preincubation with or without NADPH (dextromethorphan O-demethylation)
experimental conditions: read-out: IC50 (+ NADPH); 30-min preincubation in the presence of NADPH; human liver microsomes
attribute measured: IC50 (µM)
One number for each entry, in µM.

Ask: Given CC(N)Cc1cccc(C(F)(F)F)c1.Cl (stereo not shown) , respond with its IC50.
Reply: 17

----------
tgt: CYP2C19 (Homo sapiens)
Sequence (P33261 whole entry): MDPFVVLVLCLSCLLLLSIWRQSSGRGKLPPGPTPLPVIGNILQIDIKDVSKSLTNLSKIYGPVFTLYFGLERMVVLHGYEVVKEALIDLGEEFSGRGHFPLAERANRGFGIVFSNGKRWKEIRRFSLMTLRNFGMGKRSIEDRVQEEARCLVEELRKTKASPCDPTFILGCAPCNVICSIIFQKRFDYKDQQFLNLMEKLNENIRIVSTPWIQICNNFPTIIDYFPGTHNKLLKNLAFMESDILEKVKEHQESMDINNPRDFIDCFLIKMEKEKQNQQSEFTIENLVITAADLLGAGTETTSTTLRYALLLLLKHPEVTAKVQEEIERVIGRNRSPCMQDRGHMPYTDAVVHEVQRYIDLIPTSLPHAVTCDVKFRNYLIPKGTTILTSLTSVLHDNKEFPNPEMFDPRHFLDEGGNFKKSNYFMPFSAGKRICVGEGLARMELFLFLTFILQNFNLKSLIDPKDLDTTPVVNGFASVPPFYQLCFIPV
assay text: Direct CYP450 inhibition in human liver microsomes (S-mephenytoin 4'-hydroxylation)
experimental conditions: direct inhibition; human liver microsomes; substrate S-mephenytoin
pIC50: −log10 of the molar value.
attribute measured: pIC50

Ask: Given CC(N)Cc1cccc(C(F)(F)F)c1.Cl (stereo not shown) [nFFA] , respond with its pIC50.
Reply: < 4.00

----------
tgt: CYP2D6 (Homo sapiens)
assay text: Direct CYP450 inhibition in human liver microsomes (dextromethorphan O-demethylation)
experimental conditions: read-out: Ki, u; IC50 divided by 2, assumes [S] = Km; adjusted for estimated unbound fraction in microsomes
attribute measured: Ki (µM)
Answers are plain numbers, in µM.

Ask: Given CC(N)Cc1cccc(C(F)(F)F)c1.Cl (stereo not shown) , respond with its Ki.
Reply: 7.86

----------
tgt: CYP2D6 (Homo sapiens)
assay text: Time- and metabolism-dependent inhibition, 30-min preincubation with or without NADPH (dextromethorphan O-demethylation)
experimental conditions: read-out: IC50 (- NADPH); 30-min preincubation in the absence of NADPH; human liver microsomes
attribute measured: pIC50
One number for each entry, as −log10 of the molar value.

Ask: Given CC(N)Cc1cccc(C(F)(F)F)c1.Cl (stereo not shown) , respond with its pIC50.
Reply: 4.82

----------
tgt: CYP2B6 (Homo sapiens, UniProt P20813)
Sequence (P20813 1-491): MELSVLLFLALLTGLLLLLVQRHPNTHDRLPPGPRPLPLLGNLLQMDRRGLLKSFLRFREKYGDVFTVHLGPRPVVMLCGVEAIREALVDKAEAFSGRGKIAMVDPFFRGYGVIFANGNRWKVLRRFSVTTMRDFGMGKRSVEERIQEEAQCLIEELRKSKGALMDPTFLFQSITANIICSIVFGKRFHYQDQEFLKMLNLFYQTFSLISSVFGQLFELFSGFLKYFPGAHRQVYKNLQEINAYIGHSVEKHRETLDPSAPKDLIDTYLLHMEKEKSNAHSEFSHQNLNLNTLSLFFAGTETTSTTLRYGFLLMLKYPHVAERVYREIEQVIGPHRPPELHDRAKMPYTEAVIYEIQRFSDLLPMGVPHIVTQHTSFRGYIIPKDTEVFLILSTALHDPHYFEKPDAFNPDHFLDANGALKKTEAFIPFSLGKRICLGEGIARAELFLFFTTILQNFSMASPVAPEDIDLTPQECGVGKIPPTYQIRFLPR
assay text: Direct CYP450 inhibition in human liver microsomes (efavirenz 8-hydroxylation)
experimental conditions: direct inhibition; human liver microsomes; substrate efavirenz
attribute measured: IC50

Ask: Given CC(N)Cc1cccc(C(F)(F)F)c1.Cl (stereo not shown) , respond with its IC50.
Reply: > 100 µM

----------
tgt: CYP2C19 (Homo sapiens)
assay text: Direct CYP450 inhibition in human liver microsomes (S-mephenytoin 4'-hydroxylation)
attribute measured: IC50

Ask: Given CCNC(C)Cc1cccc(C(F)(F)F)c1 (racemic) [FFA, reference compound] , respond with its IC50.
Reply: > 60 µM

----------
System: CYP3A4/5
assay text: Direct CYP450 inhibition in human liver microsomes (midazolam 1'-hydroxylation; testosterone 6β-hydroxylation)
experimental conditions: both, human, pooled human liver microsomes, pH 7.4, probe midazolam (1'-hydroxylation)
pIC50: −log10 of the molar value.
attribute measured: pIC50

Ask: Given CCNC(C)Cc1cccc(C(F)(F)F)c1 (racemic) [FFA, reference compound] , respond with its pIC50.
Reply: < 3.22

----------
tgt: CYP1A2 (Homo sapiens, UniProt P05177)
Sequence (P05177 whole entry): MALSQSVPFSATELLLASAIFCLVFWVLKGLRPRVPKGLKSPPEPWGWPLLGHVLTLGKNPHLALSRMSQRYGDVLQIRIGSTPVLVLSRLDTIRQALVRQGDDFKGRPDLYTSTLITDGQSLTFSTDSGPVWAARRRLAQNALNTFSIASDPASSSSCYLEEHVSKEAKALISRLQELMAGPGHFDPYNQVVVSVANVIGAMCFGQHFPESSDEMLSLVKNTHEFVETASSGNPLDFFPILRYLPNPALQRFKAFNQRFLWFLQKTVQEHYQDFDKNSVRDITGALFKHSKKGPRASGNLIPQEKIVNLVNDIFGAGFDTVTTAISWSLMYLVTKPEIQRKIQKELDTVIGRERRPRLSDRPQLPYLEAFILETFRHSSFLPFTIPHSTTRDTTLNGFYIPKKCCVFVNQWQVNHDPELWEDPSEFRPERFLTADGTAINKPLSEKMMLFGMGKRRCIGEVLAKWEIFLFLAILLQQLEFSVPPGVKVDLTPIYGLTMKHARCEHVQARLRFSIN
assay text: Direct CYP450 inhibition in human liver microsomes (phenacetin O-dealkylation)
attribute measured: IC50

Ask: Given CCNC(C)Cc1cccc(C(F)(F)F)c1 (racemic) [FFA, reference compound] , respond with its IC50.
Reply: > 60 µM

----------
System: CYP3A4/5
assay text: Direct CYP450 inhibition in human liver microsomes (midazolam 1'-hydroxylation; testosterone 6β-hydroxylation)
experimental conditions: direct inhibition; human liver microsomes; substrate midazolam
attribute measured: IC50

Ask: Please tell me the measured IC50 for CC(N)Cc1cccc(C(F)(F)F)c1.Cl (stereo not shown) ; system: CYP3A4/5.
Reply: > 100 µM

----------
tgt: OATP1B3 (Homo sapiens, UniProt Q9NPD5)
Construct: host or cells: HEK293
Sequence (Q9NPD5 1-702): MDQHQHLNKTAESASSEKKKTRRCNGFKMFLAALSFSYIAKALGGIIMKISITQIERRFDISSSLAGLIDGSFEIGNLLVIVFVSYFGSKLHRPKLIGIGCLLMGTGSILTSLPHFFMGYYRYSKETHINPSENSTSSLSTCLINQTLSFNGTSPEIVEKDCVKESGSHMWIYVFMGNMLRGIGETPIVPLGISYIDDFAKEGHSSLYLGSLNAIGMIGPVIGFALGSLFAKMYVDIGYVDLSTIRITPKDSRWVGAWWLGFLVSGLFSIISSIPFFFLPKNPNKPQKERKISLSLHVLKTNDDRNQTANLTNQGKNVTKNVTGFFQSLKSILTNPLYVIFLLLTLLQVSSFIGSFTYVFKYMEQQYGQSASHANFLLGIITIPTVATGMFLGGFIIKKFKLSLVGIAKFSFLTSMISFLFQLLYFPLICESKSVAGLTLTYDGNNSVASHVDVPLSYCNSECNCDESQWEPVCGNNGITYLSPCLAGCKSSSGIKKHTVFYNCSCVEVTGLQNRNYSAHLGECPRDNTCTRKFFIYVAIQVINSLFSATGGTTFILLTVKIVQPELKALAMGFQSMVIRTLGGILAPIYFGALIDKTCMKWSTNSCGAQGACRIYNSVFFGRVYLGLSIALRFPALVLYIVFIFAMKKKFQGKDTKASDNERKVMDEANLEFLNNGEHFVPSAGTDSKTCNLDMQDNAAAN
assay text: Transporter inhibition, uptake of [3H]-estradiol-17β-glucuronide in HEK293 cells
Format: in vitro ADME
experimental conditions: HEK293; probe [3H]-estradiol-17β-glucuronide 50 nM; read-out: IC50
pIC50: −log10 of the molar value.
attribute measured: pIC50

Ask: Please tell me the measured pIC50 for CC(N)Cc1cccc(C(F)(F)F)c1.Cl (stereo not shown) [nFFA] ; system: OATP1B3 (Homo sapiens, UniProt Q9NPD5).
Reply: < 4.30
